assay: Cytotoxicity against human U87MG cells after 3 days by SRB assay; type: functional, cell-based, U-87MG ATCC; conditions: U-87 MG, 72 h
value_type: IC50 (µg/mL)

> print(dat)
                                   compound  endpoint.value
1  CC(C)=CCc1c2c(c(O)c3c1O[C@H](c1ccccc1O)CC3=O)C=CC(C)(C)O2 [MINIMIFLORIN]              11
2  CO[C@H]1C(=O)c2c(cc3c(c2O)C=CC(C)(C)O3)O[C@@H]1c1ccccc1O [BUCERACIDIN A]            16.1
3  CC(C)=CCc1c2c(c(O)c3c1O[C@H](c1ccccc1O)[C@@H](O)C3=O)C=CC(C)(C)O2            14.8
4  CC1(C)C=Cc2c(cc3c(c2O)C(=O)C[C@@H](c2ccccc2O)O3)O1 [BUCERACIDIN B]            14.2
5  CO[C@H]1C(=O)c2c(O)c3c(c(CC=C(C)C)c2O[C@@H]1c1ccccc1O)OC(C)(C)C=C3             8.6
6  CC(C)=CCc1c2c(c(O)c3c1O[C@H](c1ccccc1)[C@@H](O)C3=O)C=CC(C)(C)O2 [MUNDULINOL]              13

---

system: KB; test: Cytotoxicity against human KB cells after 3 days by SRB assay; format: functional, cell-based; settings: 72 h
value_type: IC50 (mg/L)

> print(dat)
                                   compound  measured.on  qualifier.symbol  endpoint.value
1  CC1(C)C=Cc2c(cc3c(c2O)C(=O)C[C@@H](c2ccccc2O)O3)O1 [BUCERACIDIN B]           KB                 =             9.5
2  CO[C@H]1C(=O)c2c(O)c3c(c(CC=C(C)C)c2O[C@@H]1c1ccccc1O)OC(C)(C)C=C3           KB                 =             6.5
3  CC(C)=CCc1c2c(c(O)c3c1O[C@H](c1ccccc1O)[C@@H](O)C3=O)C=CC(C)(C)O2           KB                 =            16.5
4  CC(C)=CCc1c2c(c(O)c3c1O[C@H](c1ccccc1O)CC3=O)C=CC(C)(C)O2 [MINIMIFLORIN]           KB                 =             7.3
5  CC(C)=CCc1c2c(c(O)c3c1O[C@H](c1ccccc1)[C@@H](O)C3=O)C=CC(C)(C)O2 [MUNDULINOL]           KB                 =             8.5
6  CO[C@H]1C(=O)c2c(cc3c(c2O)C=CC(C)(C)O3)O[C@@H]1c1ccccc1O [BUCERACIDIN A]           KB                 >              10

---

test: Cytotoxicity against human KBVIN cells after 3 days by SRB assay; assay type: functional, cell-based; conditions: 72 h
IC50 vs 10 µg/mL: less than gives met; not less than gives not met.

> print(dat)
                           structure.smiles  class.label
1  CC(C)=CCc1c2c(c(O)c3c1O[C@H](c1ccccc1)[C@@H](O)C3=O)C=CC(C)(C)O2          met
2  CC1(C)C=Cc2c(cc3c(c2O)C(=O)C[C@@H](c2ccccc2O)O3)O1          met
3  CO[C@H]1C(=O)c2c(cc3c(c2O)C=CC(C)(C)O3)O[C@@H]1c1ccccc1O      not met
4  CO[C@H]1C(=O)c2c(O)c3c(c(CC=C(C)C)c2O[C@@H]1c1ccccc1O)OC(C)(C)C=C3          met
5  CC(C)=CCc1c2c(c(O)c3c1O[C@H](c1ccccc1O)CC3=O)C=CC(C)(C)O2          met
6  CC(C)=CCc1c2c(c(O)c3c1O[C@H](c1ccccc1O)[C@@H](O)C3=O)C=CC(C)(C)O2      not met

// provenance: ChEMBL document CHEMBL1159337
